All figures here come from patent US20240327389A1.

- Measured On: PD-1/PD-L1 interaction (PD-1-Ig / PD-L1-His) (Homo sapiens (Human))
- Sequence (Q9NZQ7 18-239): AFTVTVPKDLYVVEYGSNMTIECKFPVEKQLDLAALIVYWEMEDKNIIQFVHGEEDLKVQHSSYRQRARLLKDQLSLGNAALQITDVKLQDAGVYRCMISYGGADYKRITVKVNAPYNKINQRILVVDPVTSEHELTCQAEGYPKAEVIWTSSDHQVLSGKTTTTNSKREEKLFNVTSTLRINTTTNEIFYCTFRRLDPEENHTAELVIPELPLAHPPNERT
- Assay Text: PD-1/PD-L1 Homogenous Time-Resolved Fluorescence (HTRF) binding assay
- Condition Description: PD-L1-His 10 nM final, PD-1-Ig 20 nM final
pIC50: −log10 of the molar value.
Given measured pIC50, output met if it is greater than or equal to 8 and not met if not.

Please tell me: is the compound Cc1c(COc2cc(OCc3cncc(C#N)c3)c(CNC3CC(C)(C)OC3=O)cc2Cl)cccc1-c1cccc(OCC2CCCN(C)C2)c1Cl (stereo not drawn) [Compound 1007] at or over 8 in terms of pIC50?
met

Tell me whether pIC50 is at least 8 here: Cc1c(COc2cc(O)c(CN[C@H]3CCOC3=O)cc2Cl)cccc1-c1cccc(OCC2CCCN(C)C2)c1Cl (stereo partly drawn) [Compound 1031]
not met

Test whether the compound Cc1c(COc2cc(O)c(CNC3CC(C)OC3=O)cc2Cl)cccc1-c1cccc(OCC2CCCN(C)C2)c1Cl (stereo not drawn) [Compound 1030] records pIC50 of 8 or higher.
not met

I'd appreciate it if you could say whether COc1cc(OCc2cccc(-c3cccc(OCC4CCCN(C)C4)c3Cl)c2C)c(Cl)cc1CN[C@H]1CCNC1=O (stereo partly drawn) [Compound 1044] has pIC50 at least equal to 8.
met

Confirm if pIC50 reported for the compound Cc1c(COc2cc(OCc3cncc(C#N)c3)c(CNC3CCCNC3=O)cc2Cl)cccc1-c1cccc(OCC2CCCN(C)C2)c1Cl (stereo not drawn) [Compound 1014] is 8 or above.
met

Could you please find out whether COc1cc(OCc2cccc(-c3cccc(OCC4CCCN(C)C4)c3Cl)c2C)c(Cl)cc1CNC1(C)CC(C)(C)OC1=O (stereo not drawn) [Compound 1039] has pIC50 that meets 8 or exceeds it?
not met

Say whether Cc1c(COc2cc(OCc3cncc(C#N)c3)c(CN[C@H]3CCOC3=O)cc2Cl)cccc1-c1cccc(COc2cc(OCc3cncc(C#N)c3)c(CN[C@H]3CCOC3=O)cc2Cl)c1C [Compound 1019] shows pIC50 of 8 or more.
not met

pIC50 >= 8 for Cc1c(COc2cc(OCc3cncc(C#N)c3)c(CNC3CCC(=O)NC3=O)cc2Cl)cccc1-c1cccc(OCC2CCCN(C)C2)c1Cl (stereo not drawn) [Compound 1015] ?
met

Kindly determine if pIC50 recorded for Cc1c(COc2cc(OCc3cncc(C#N)c3)c(CNC3CCN(C)C3=O)cc2Cl)cccc1-c1cccc(OCC2CCCN(C)C2)c1Cl (stereo not drawn) [Compound 1012] is above or exactly 8.
met

Textbook exercise: given the entry Cc1c(COc2cc(O)c(CN[C@H]3COC(=O)C3)cc2Cl)cccc1-c1cccc(OCC2CCCN(C)C2)c1Cl (stereo partly drawn) [Compound 1028] , state whether its pIC50 is greater than or equal to 8.
not met

API: above_or_equal(metric=pIC50, cutoff=8) for item Cc1c(COc2cc(OCc3cncc(C#N)c3)c(CNC3CC(=O)OC3(C)C)cc2Cl)cccc1-c1cccc(COc2cc(OCc3cncc(C#N)c3)c(CNC3CC(=O)OC3(C)C)cc2Cl)c1C (stereo not drawn) [Compound 1021]
not met

Does the compound Cc1c(COc2cc(OCc3cncc(C#N)c3)c(CNC3CCNC3=O)cc2Cl)cccc1-c1cccc(OCC2CCCN(C)C2)c1Cl (stereo not drawn) [Compound 1027] have recorded pIC50 that is 8 or more?
met

Does pIC50 meet or surpass 8 for Cc1c(COc2cc(OCc3cncc(C#N)c3)c(CO)cc2Cl)cccc1-c1cccc(COc2cc(OCc3cncc(C#N)c3)c(CNC3(C)CCOC3=O)cc2Cl)c1C (stereo not drawn) [Compound 1017] ?
not met

Confirm if pIC50 reported for the compound COc1cc(OCc2cccc(-c3cccc(OCC4CCCN(C)C4)c3Cl)c2C)c(Cl)cc1CNC1CCCNC1=O (stereo not drawn) [Compound 1035] is 8 or above.
met

Dear colleague, could you confirm whether Cc1c(COc2cc(OCc3cncc(C#N)c3)c(CNC3CCNC3=O)cc2Cl)cccc1-c1cccc(OCC2CCCN(C)C2)c1Cl (stereo not drawn) [Compound 1011] has pIC50 at or above 8?
met

Test whether the compound COc1cc(OCc2cccc(-c3cccc(OCC4CCCN(C)C4)c3Cl)c2C)c(Cl)cc1CN[C@H]1CCCNC1=O (stereo partly drawn) [Compound 1045] records pIC50 of 8 or higher.
met

Does Cc1c(COc2cc(OCc3cncc(C#N)c3)c(CNC3CC(C)OC3=O)cc2Cl)cccc1-c1cccc(OCC2CCCN(C)C2)c1Cl (stereo not drawn) [Compound 1006] have a reported pIC50 of at least 8?
met

Does Cc1c(COc2cc(OCc3cncc(C#N)c3)c(CN(CC3CC3)C3(C)CCOC3=O)cc2Cl)cccc1-c1cccc(COc2cc(OCc3cncc(C#N)c3)c(CN(CC3CC3)C3(C)CCOC3=O)cc2Cl)c1C (stereo not drawn) [Compound 1052] have a reported pIC50 of at least 8?
not met

Exam item: decide whether the reported pIC50 for Cc1c(COc2cc(OCc3cncc(C#N)c3)c(CN[C@H]3CCOC3=O)cc2Cl)cccc1-c1cccc(OCC2CCCN(C)C2)c1Cl (stereo partly drawn) [Compound 1001] is at least 8.
met

Check the entry Cc1c(COc2cc(OCc3cncc(C#N)c3)c(CNC3(C)CCOC3=O)cc2Cl)cccc1-c1cccc(COc2cc(OCc3cncc(C#N)c3)c(CNC3(C)CCOC3=O)cc2Cl)c1C (stereo not drawn) [Compound 1016] : does pIC50 equal or exceed 8?
not met

Tell me whether pIC50 is at least 8 here: Cc1c(COc2cc(OCc3cncc(C#N)c3)c(CN(C)C3(C)CCOC3=O)cc2Cl)cccc1-c1cccc(COc2cc(OCc3cncc(C#N)c3)c(CN(C)C3(C)CCOC3=O)cc2Cl)c1C (stereo not drawn) [Compound 1051]
not met
